All values here come from PubChem BioAssay AID1963845.

- System: 429239-143-T-J1-PDC complex spheroid viability
- experimentSummary: Anticancer human tumor 429239-143-T-J1-PDC patient-derived small cell lung carcinoma cell line growth inhibition [POLQ]; active means viability on the fitted dose curve at most 10% of control; inactive means the rest
- experimentalConditions: second compound 0.316 µM; first compound 3.16 µM
Write down one outcome, taken from active, inactive

For orientation, consider the following solved cases.
compound	testedTarget	qualitativeLabel
CC1COCCN1c1cc(C2(O)CC3CCC(C2)O3)c2cnn(-c3ccn[nH]3)c2n1 (stereo not drawn) + Cc1cccc(N(C)C(=O)C2C(O)CCN2c2nc(C)cc(C(F)(F)F)c2C#N)c1	429239-143-T-J1-PDC complex spheroid viability	active
CCCS(=O)(=O)Nc1ccc(F)c(C(=O)c2c[nH]c3ncc(-c4ccc(Cl)cc4)cc23)c1F + COC1C(OC(N)=O)C(O)C(Oc2ccc3c(O)c(NC(=O)c4ccc(O)c(CC=C(C)C)c4)c(=O)oc3c2C)OC1(C)C	429239-143-T-J1-PDC complex spheroid viability	inactive

Next:
Query: Assay result, entry O=C(Nc1ccc(O)c(NS(=O)(=O)c2ccc(F)cc2)c1)c1ccc(-c2ccccc2)cc1 + Nc1ccc(C#CCN(C(=O)Cc2ncc(C(F)(F)F)cc2C(F)(F)F)c2ccc(F)cc2)nn1 — outcome?
Response: inactive

----------
Item-by-item account of viability, T/C
- System: 429239-143-T-J1-PDC complex spheroid viability
- experimentSummary: Anticancer human tumor 429239-143-T-J1-PDC cell line growth inhibition [POLQ];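 further: luminescence signal used as surrogate measure of viable cells; spheroids exposed to compounds for seven days before readout; 100% = DMSO vehicle control viability as luminescence relative to vehicle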
- experimentalConditions: second compound 0.0316 µM; first compound 0.316 µM; stronger effect = lower value
Please reply with the bare figure in % and do not write the unit itself.

Answered examples (6):
compound	viability, T/C (%)
CCc1c2c(nc3ccc(O)cc13)-c1cc3c(c(=O)n1C2)COC(=O)[C@]3(O)CC + Cc1cccc(N(C)C(=O)C2C(O)CCN2c2nc(C)cc(C(F)(F)F)c2C#N)c1	13.3
CC1COCCN1c1cc(C2(O)CC3CCC(C2)O3)c2cnn(-c3ccn[nH]3)c2n1 (stereo not given) + COC1C(OC(N)=O)C(O)C(Oc2ccc3c(O)c(NC(=O)c4ccc(O)c(CC=C(C)C)c4)c(=O)oc3c2C)OC1(C)C	15.4
COc1cccc(OCCCN)c1-c1cc(Nc2cnc(C#N)cn2)n[nH]1 + Nc1ccc(C#CCN(C(=O)Cc2ncc(C(F)(F)F)cc2C(F)(F)F)c2ccc(F)cc2)nn1	55.2
CC1COCCN1c1cc(-c2ccnn2C)c2ccnc(-c3ccn[nH]3)c2n1 (stereo not given) + Nc1ccc(C#CCN(C(=O)Cc2ncc(C(F)(F)F)cc2C(F)(F)F)c2ccc(F)cc2)nn1	68.3
C#Cc1c(F)ccc2cc(O)cc(-c3ncc4c(N5CC6CCC(C5)N6)nc(OCC56CCCN5CC(F)C6)nc4c3F)c12 (stereo not given) + Cc1cccc(N(C)C(=O)C2C(O)CCN2c2nc(C)cc(C(F)(F)F)c2C#N)c1	97.1
CCc1cc2c(N3CCc4c(cc(Cn5ccnc5)cc4-c4cn(C)nc4C(F)(F)F)C3=O)cc(C)nc2c(OC)n1 + Nc1ccc(C#CCN(C(=O)Cc2ncc(C(F)(F)F)cc2C(F)(F)F)c2ccc(F)cc2)nn1	91.3

Query: Need viability, T/C, item COc1cc(C2c3cc4c(cc3C(OC3OC5COC(C)OC5C(O)C3O)C3COC(=O)C23)OCO4)cc(OC)c1O (stereo not given) + Nc1ccc(C#CCN(C(=O)Cc2ncc(C(F)(F)F)cc2C(F)(F)F)c2ccc(F)cc2)nn1
Response: 76.4

Query: Need viability, T/C, item O=C(c1cc(Cc2n[nH]c(=O)c3ccccc23)ccc1F)N1CCN(C(=O)C2CC2)CC1 + Nc1ccc(C#CCN(C(=O)Cc2ncc(C(F)(F)F)cc2C(F)(F)F)c2ccc(F)cc2)nn1
Response: 92.4

Query: Need viability, T/C, item CCc1cc2c(N3CCc4c(cc(Cn5ccnc5)cc4-c4cn(C)nc4C(F)(F)F)C3=O)cc(C)nc2c(OC)n1 + COC1C(OC(N)=O)C(O)C(Oc2ccc3c(O)c(NC(=O)c4ccc(O)c(CC=C(C)C)c4)c(=O)oc3c2C)OC1(C)C
Response: 70.6

Query: Need viability, T/C, item CNCc1ccc(-c2[nH]c3cc(F)cc4c3c2CCNC4=O)cc1 + COC1C(OC(N)=O)C(O)C(Oc2ccc3c(O)c(NC(=O)c4ccc(O)c(CC=C(C)C)c4)c(=O)oc3c2C)OC1(C)C
Response: 87.1
